STUDY SYSTEM: polyclonal antibodies (AB1) directed against the peptide of sequence … (Spadin)
METHOD NOTES: AlphaLISA competition, unlabelled peptide against 10 nM biotinylated spadin on AB1 (1:1000)
MEASURED METRIC: pIC50
On this scale, pIC50 is minus log10 of a concentration expressed in M (mol/L).

Lab note: QDRLDAPPPPAAPLPRWSGPIGVSWGLRAAAAGGAFPRGGRWRR [Propeptide (PE) 44AA] gave pIC50 of 8.66

Lab note: APLPRWSGPIGVSWGL [12-27 PE] gave pIC50 of 8.76

Lab note: APLPRWSGPIGVSWGLR [spadin 12-28 PE] gave pIC50 of 8.60

Lab note: LPRWSGPIGVSW [14-25 PE] gave pIC50 of 8.46
